# Tgt: Microtubule-associated protein 1 light chain 3 beta (Homo sapiens, UniProt Q9GZQ8)
# Experimental details: Binding affinity to human recombinant LC3B assessed as dissociation constant by isothermal titration calorimetry
Assay metric: Kd (µM)
Express it in µM; write the number only.

Record `Cc1ccc(C(=O)N(CCCN)[C@H](c2nc3cc(Cl)ccc3c(=O)n2Cc2ccccc2)C(C)C)cc1` . Reported Kd: 11.8

----------
# Tgt: Microtubule-associated protein 1 light chain 3 beta (Homo sapiens)
# Experimental details: Binding affinity to human recombinant LC3B assessed as dissociation constant incubated for 30 mins by fluorescence anisotropy assay
Assay metric: Kd (nM)
# output: bare number, implied unit nM

Lab note: `Cc1ccc(C(=O)N(CCCNC(=S)Nc2ccc3c(c2)C(=O)OC32c3ccc(O)cc3Oc3cc(O)ccc32)[C@@H](c2nc3cc(Cl)ccc3c(=O)n2Cc2ccccc2)C(C)C)cc1` gave Kd of 175
